Target: bovine striatal adenosine receptors (non-selective)
Details: displacement of [3H]-NECA
Recorded Ki for the following compounds
Give your result in nM as a bare value.

# annotated cases, reported Ki shown
| compound | value kind | reported value |
| --- | --- | --- |
| CNC(=O)[C@H]1O[C@@H](n2cnc3c(N)ncnc32)[C@H](O)[C@@H]1O [MECA, 5′-N-methylcarboxamidoadenosine, reference compound] | Ki | 58 |
| O[C@H](c1cc(C(F)(F)F)nc2c(C(F)(F)F)cccc12)[C@@H]1CCCCN1 [(+)-enantiomer] | Ki | 38000 |

// next item, Ki requested
compound O[C@@H](c1cc(C(F)(F)F)nc2c(C(F)(F)F)cccc12)[C@H]1CCCCN1 [(−)-enantiomer] , Ki observed: 83
